- Target Or Test System: T1, recombinant human OX40L (extracellular domain, R&D Systems) (human, UniProt P23510 51-183)
- T1 construct: also called hOX40L; rec. hOX40L
- T1 sequence: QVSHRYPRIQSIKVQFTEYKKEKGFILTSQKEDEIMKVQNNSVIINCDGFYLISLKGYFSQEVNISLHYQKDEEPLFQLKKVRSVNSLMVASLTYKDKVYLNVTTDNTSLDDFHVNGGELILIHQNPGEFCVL
- Assay: SPR, second injection after competitor OX40L01E10
- Procedure: In addition, it was investigated to what extend the 7 anti-OX40L Nanobodies have a different or identical or overlapping epitope. Standard conditions were as described above. […] 1300 RU. A dual injection was performed at 10 μl/min for 2 min, starting with 500 nM of the first Nanobody, followed by 500 nM of the second Nanobody. After 10 min dissociation, regeneration of the surface was performed by injection of 50 mM NaOH for 5-20 sec at 100 μl/min.
Measure Name: Binding Level sample 2 - sample 1 (RU)
Reply numerically in RU, unit not repeated.

| Binder | Binding Level sample 2 - sample 1 (RU) |
| --- | --- |
| OX40L19D08 (VHH, monovalent Nanobody from E. coli; not shown: C-terminal c-myc and His6 tag) VHH: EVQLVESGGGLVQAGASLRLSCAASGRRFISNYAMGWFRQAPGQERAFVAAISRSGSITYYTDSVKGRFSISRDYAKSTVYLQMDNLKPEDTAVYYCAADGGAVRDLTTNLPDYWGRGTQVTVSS | 49 |

Attention now turns to another entry.
Given the binder OX40L01E10 (VHH, monovalent Nanobody from E. coli; not shown: C-terminal c-myc and His6 tag) VHH: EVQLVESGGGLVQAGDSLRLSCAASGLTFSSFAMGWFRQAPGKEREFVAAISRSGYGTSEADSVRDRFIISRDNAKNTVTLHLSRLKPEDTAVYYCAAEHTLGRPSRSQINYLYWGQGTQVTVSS , what is its reported Binding Level sample 2 - sample 1 (RU)?
8

Every entry's value here was drawn from patent US20150218281A1.
